- EXPERIMENTAL_DETAILS: In vitro metabolic stability in human liver S9
- Assay type: in vitro ADME
- CONDITION_NOTES: calculated from in vitro half-life in human liver S9
I'd appreciate it if you could supply Apparent intrinsic clearance values for the items below.

Req: What measured Apparent intrinsic clearance goes with CCSc1ccc(C2C(C(N)=O)=C(C)Nc3nc(SCc4ccccc4)nn32)cc1 (stereo not drawn) [Compound 13] ?
Resp: <10.4 mLmin^−1kg^−1

Req: What measured Apparent intrinsic clearance goes with CC1=C(C(N)=O)C(c2ccc(N(C)C)cc2)n2nc(SCc3ccc([N+](=O)[O-])cc3)nc2N1 (stereo not drawn) [Compound 83] ?
Resp: <10.4 mLmin^−1kg^−1

Req: What measured Apparent intrinsic clearance goes with CC1=C(C(N)=O)C(c2ccc(N(C)C)cc2)n2nc(SCc3ccccc3)nc2N1 (stereo not drawn) [Compound 16] ?
Resp: <10.4 mLmin^−1kg^−1

Req: What measured Apparent intrinsic clearance goes with CC1=C(C(N)=O)C(c2ccc(OC(C)C)cc2)n2nc(SCc3ccccc3)nc2N1 (stereo not drawn) [Compound 10] ?
Resp: 10.9 mLmin^−1kg^−1

Req: What measured Apparent intrinsic clearance goes with CC1=C(C(N)=O)C(c2ccc(C(C)C)cc2)n2nc(SCc3ccccc3)nc2N1 (stereo not drawn) [Compound 1] ?
Resp: 11.1 mLmin^−1kg^−1

Req: What measured Apparent intrinsic clearance goes with CC1=C(C(N)=O)C(c2ccc(N(C)C)cc2)n2nc(SCc3ccc(C#N)cc3)nc2N1 (stereo not drawn) [Compound 84] ?
Resp: <10.4 mLmin^−1kg^−1

---

- EXPERIMENTAL_DETAILS: Hemolysis assay
- CONDITION_NOTES: red blood cells
EXPERIMENTAL_ENDPOINT: hemolysis at 64 μg/mL

Req: What measured hemolysis at 64 μg/mL goes with CC1=C(C(N)=O)C(c2ccc(N(C)C)cc2)n2nc(SCc3ccc(C#N)cc3)nc2N1 (centres unmarked) [Compound 84] ?
Resp: 1 to 2%

Req: What measured hemolysis at 64 μg/mL goes with CC1=C(C(N)=O)C(c2ccc(N(C)C)cc2)n2nc(SCc3ccccc3)nc2N1 (centres unmarked) [Compound 16] ?
Resp: 1 to 2%

Values from paper PMC4633020
